Test system: Wnt5a (protein binding on small-molecule microarray)
Assay: Wnt5a binders on small-molecule microarray, primary screen, biophysical, 635/667 nm fluorescence (AID 1142);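 also: fluorescence read at 667 nm with signal to noise per printed feature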
Conditions: 635 nm fluorescence, higher = more signal
Quantity Kind: composite z-score
Simply state the number, no unit and no words.

Solved entries (count: 5):
COC(=O)[C@@]1(Cc2ccc(F)cc2)[C@H]2c3cc(C(=O)N(C)C)n(Cc4ccc(Cl)c(C(F)(F)F)c4)c3C[C@H]2CN1C(=O)c1ccccc1: 0.156
CC(C)C(O)C1C=CC2C(=O)NC(=O)C2N1Nc1ccc(Cl)cc1Cl (configuration not stated): -0.0055
C=CC1(C(=O)OC)CC=C(C(=O)OC)CC1 (configuration not stated): 0.181
COC(=O)C(CC#Cc1ccc2c(c1)[C@]1(C(=O)N2)[C@H](C(=O)Nc2nc3ccccc3s2)[C@H]2C(=O)O[C@H](c3ccccc3)[C@H](c3ccccc3)N2[C@@H]1c1ccccc1OCCO)C(=O)OC: 0.573
CC(C)N1C(=O)c2ccccc2[C@](C)(C(=O)NCCN2CCOCC2)[C@@H]1c1ccc(CO)cc1: -0.568

Which composite z-score value is on record for COC(=O)[C@@]1(Cc2ccc(F)cc2)[C@H]2c3cc(C(=O)N(C)C)n(Cc4ccccc4)c3C[C@H]2CN1C(=O)c1ccccc1 ?
0.198

Which composite z-score value is on record for CCCC[C@@H]1C[C@H]1[C@@H](NC(=O)C(C)(C)C)c1ccc(C(F)(F)F)cc1 ?
-0.96

Data provenance is PubChem BioAssay.
